Please go through the items and note down their growth inhibition.
Experiment: NCI Yeast Anticancer Drug Screen. Data for the cln2 rad14 strain (AID 165);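 also: 0% = growth equal to vehicle treated cultures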
Details: S. cerevisiae cln2 rad14 strain, at 50.0 µM, active compounds read high
Method: Growth inhibition of yeast strains with defined genetic alterations is measured as a screen for potential anti-cancer activity. Selected strains with alterations in DNA damage repair or cell cycle control were exposed to compounds and growth inhibition was measured relative to vehicle treated controls. The strain used in this assay is cln2 rad14
The panel holds about 79,000 compounds, 15% with a hit somewhere; the sample as a whole holds those more often.
Write it as a number; the unit % goes unstated.

Look at this molecule and give its reported growth inhibition. CCOC(=O)/C(Cc1cc(=O)n(C)c2ccccc12)=N\Nc1ccccc1
-4.6

Look at this molecule and give its reported growth inhibition. CC1(C)CS(=O)(=O)C(=O)N1CCC(=O)O
3.85

Look at this molecule and give its reported growth inhibition. CC1C(=O)OC2C1CCC1(C)C=CC(=O)C(C)C21 (centres undefined)
-23.2

Look at this molecule and give its reported growth inhibition. CCCCNc1ncnc2c1cnn2C
-11.9

Look at this molecule and give its reported growth inhibition. CCNC(=O)NCN1CCOCC1
9.45

Look at this molecule and give its reported growth inhibition. Cn1nnnc1CC(=O)O
-22.8

Look at this molecule and give its reported growth inhibition. CCOCCOC(=O)OCCOCC
-4.3

Look at this molecule and give its reported growth inhibition. Cc1nnc(-c2ccccc2)s1
12.1

Look at this molecule and give its reported growth inhibition. N#CCCSc1nnc(N)s1
16.9

Look at this molecule and give its reported growth inhibition. CN(C)c1ccc(/C=N/NC(=O)c2ccccc2NC(=O)c2ccccc2)cc1
-19.8

Look at this molecule and give its reported growth inhibition. CCC(=O)Oc1ccc(C(=O)O)cc1
-39.5

Look at this molecule and give its reported growth inhibition. COC(=O)c1ccccc1-c1ccccc1[N+](=O)[O-]
2.6

Look at this molecule and give its reported growth inhibition. CCCCC1CCC2CCCCC2C1 (centres undefined)
-18.1

Look at this molecule and give its reported growth inhibition. CNC(=S)/C(C(C)=O)=C(\C)Nc1ccccc1
-32.1
